Test system: NCI60 cell lines
Protocol details: NCI60 cell line panel
Type: cell-based, human
Condition details: CNS Cancer, SNB-75
Binary call on GIPRCNT: % Growth inhibition: yes from 80% upward, no beneath that.

{"columns": ["Compound", "Class assignment"],
 "data": [
  ["O=C(Nc1cc(F)cc2cccnc12)c1cnc(N2CCNCC2)cn1", "yes"],
  ["CCN(CC)CCCC(C)Nc1cnc(C(=O)Nc2cc(F)cc3cccnc23)cn1 (centres unmarked)", "no"],
  ["CCN(CC)CCCC(C)Nc1cnc(C(=O)Nc2cccc3ccc(OC)nc23)cn1 (centres unmarked)", "no"],
  ["CCN(CC)CCCC(C)Nc1cnc(C(=O)Nc2ccc(Cl)c3cccnc23)cn1 (centres unmarked)", "no"]
]}

###

Tested on: NCI60 cell lines
Protocol details: NCI60 cell line panel
Type: cell-based, human
Condition details: Colon Cancer, KM12
Quantity kind: GIPRCNT: % Growth inhibition

{"columns": ["Molecule", "Assayed system", "Result"],
 "data": [
  ["CCN(CC)CCCC(C)Nc1cnc(C(=O)Nc2ccc(Cl)c3cccnc23)cn1 (centres unmarked)", "NCI60 cell lines", "30.3%"],
  ["CCN(CC)CCCC(C)Nc1cnc(C(=O)Nc2cc(C)cc3cccnc23)cn1 (centres unmarked)", "NCI60 cell lines", "97.9%"],
  ["CCN(CC)CCCC(C)Nc1cnc(C(=O)Nc2cccc3ccc(OC)nc23)cn1 (centres unmarked)", "NCI60 cell lines", "36.32%"],
  ["CCN(CC)CCCC(C)Nc1cnc(C(=O)Nc2cc(F)cc3cccnc23)cn1 (centres unmarked)", "NCI60 cell lines", "75.34%"],
  ["O=C(Nc1cc(F)cc2cccnc12)c1cnc(N2CCNCC2)cn1", "NCI60 cell lines", "81.24%"]
]}

###

Attribute: GIPRCNT: % Growth inhibition
Tested on: NCI60 cell lines
Protocol details: NCI60 cell line panel
Type: cell-based, human
Condition details: Renal Cancer, A498
Quantity kind: GIPRCNT: % Growth inhibition

{"columns": ["Compound", "Result"],
 "data": [
  ["CCN(CC)CCCC(C)Nc1cnc(C(=O)Nc2cc(C)cc3cccnc23)cn1 (centres unmarked)", "70.33%"],
  ["CCN(CC)CCCC(C)Nc1cnc(C(=O)Nc2cccc3ccc(OC)nc23)cn1 (centres unmarked)", "46.17%"],
  ["CCN(CC)CCCC(C)Nc1cnc(C(=O)Nc2cc(F)cc3cccnc23)cn1 (centres unmarked)", "62.97%"],
  ["CCN(CC)CCCC(C)Nc1cnc(C(=O)Nc2ccc(Cl)c3cccnc23)cn1 (centres unmarked)", "53.99%"],
  ["O=C(Nc1cc(F)cc2cccnc12)c1cnc(N2CCNCC2)cn1", "89.1%"]
]}

###

Tested on: NCI60 cell lines
Protocol details: NCI60 cell line panel
Format: cell-based, human
Condition details: Renal Cancer, RXF 393
Method: The Developmental Therapeutics Program (DTP) of NCI has evaluated more than 100,000 pure compounds and more than 34,000 crude extracts against the panel of human tumor cell lines. The resultant data are analyzed using a program called COMPARE, that rank the entire database of tested compounds in the order of the similarity of the responses. […] Thus, the NCI60 databases is highly useful to the cancer research community. […]
Quantity kind: GIPRCNT: % Growth inhibition (%)

{"columns": ["Molecule", "Readout number"],
 "data": [
  ["CCN(CC)CCCC(C)Nc1cnc(C(=O)Nc2cccc3ccc(OC)nc23)cn1 (centres unmarked)", 45.96],
  ["CCN(CC)CCCC(C)Nc1cnc(C(=O)Nc2cc(C)cc3cccnc23)cn1 (centres unmarked)", 72.29],
  ["O=C(Nc1cc(F)cc2cccnc12)c1cnc(N2CCNCC2)cn1", 52.45],
  ["CCN(CC)CCCC(C)Nc1cnc(C(=O)Nc2cc(F)cc3cccnc23)cn1 (centres unmarked)", 33.77],
  ["CCN(CC)CCCC(C)Nc1cnc(C(=O)Nc2ccc(Cl)c3cccnc23)cn1 (centres unmarked)", 18.75]
]}
